Known growth of a selection of compounds
Tested on: BT-549 breast
Assay: NCI-60 one-dose screen, 48 h (100 = growth as untreated, 0 = no growth, -100 = all killed)
Settings: 10 µM unless noted
About 83,000 compounds went through this panel and 20% of them were active in at least one assay; those are over-represented in the sample as a whole. The source made the active and inactive calls. How the source made its calls: active means growth percent below 10; inactive means the rest.
MEASURED_QUANTITY: growth

O=C(NO)c1ccc(Cn2c(=O)n(CCc3ccc(O)cc3)c(=O)c3ccccc32)cc1 | 65.7% (inactive)
Nc1ccccc1NC(=O)c1ccc(CN2CCC/C(=C\c3ccccn3)C2=O)cc1 | 52.9% (inactive)
COc1ccc2c(c1)c(-c1nc(-c3c[nH]c4ncccc34)cs1)cn2CCCN1CCCCC1 | 67.5% (inactive)
c1ccc(CN2C(c3ccccc3)=Nc3ccccc3C2c2c[nH]c3ccccc23)cc1 (stereo not given) | 96.3% (inactive)
CCCC(=O)N1CCCCC1CC (stereo not given) | 100% (inactive)
N#CC1C(=N)Cc2ccccc2-c2ccccc21 (stereo not given) | 41.5% (inactive)
CC(C)(C)c1ccc(OP(=S)(N/N=C/c2ccccc2O)Oc2ccc(C(C)(C)C)cc2)cc1 | 89.5% (inactive)
COC(=O)[C@@H]1[C@H]2C[C@H]3c4[nH]c5cc(OC)ccc5c4CCN3C[C@@H]2C[C@H](OC(=O)/C=C/c2ccnc(OC)c2)[C@H]1OC | 81.2% (inactive)
C/C(=N\Nc1ccc2ccccc2n1)c1ccccn1 | 20.3% (inactive)
CCN1CCN(C(=O)[C@@]2(C)CC[C@]3(C)CC[C@]4(C)C(=CC(=O)[C@@H]5[C@@]6(C)CC[C@H](OC7C[C@@H](O)[C@@H](O)C(C)O7)C(C)(C)[C@@H]6CC[C@]54C)[C@@H]3C2)CC1 (stereo not given in full) | 87.1% (inactive)
N#Cc1cnc2cc(OC[C@@H](O)CO)c(NC(=O)C3CCCC3)cc2c1Nc1ccc(OCc2cccc(F)c2)c(Cl)c1 | -72.8% (active)
CC1(C)NC2=C(C(Nc3cccnc3)N1)C(c1ccc([N+](=O)[O-])cc1)C(C(=O)c1ccc(N=[N+]=[N-])cc1)O2 (stereo not given) | 99.7% (inactive)
O=C(Nc1ccc(/C=C2\SC(=O)N(Cc3ccc(OC(F)(F)F)cc3)C2=O)cc1)c1ccc(Cl)c([N+](=O)[O-])c1 | 75.3% (inactive)
O=C(NC(Cc1cn(Cc2ccccc2)cn1)C(=O)O)OCC1c2ccccc2-c2ccccc21 (stereo not given) | 97.2% (inactive)
c1cc(N2CCCC2)c2nc(-c3[nH]ncc3Nc3ncnc4[nH]ccc34)[nH]c2c1 | -37% (active)
Cc1cccc(C)c1NCc1nc(-c2ccccc2)n[nH]1 | 94.8% (inactive)
CC(=O)c1c(C)[nH]c(-c2nc3ccc(N4CCN(C)CC4)cc3[nH]2)c1-c1ccc(OCC2CCOCC2)cc1 | 57.1% (inactive)
C#Cc1cccc(NC(=O)C2CCCN(C(=O)CCl)C2)c1 (stereo not given) | 55.1% [8.25 µM] (inactive)
COC(=O)[C@]12CC[C@@H](C)[C@H](C)[C@@H]1C1=CC[C@@H]3[C@@]4(C)C=C(O)C(=O)C(C)=C4CC[C@@]3(C)[C@]1(C)CC2 | 69.1% (inactive)
COc1cnc2c(c1)C(=O)c1c-2n(CCCNC2=NCCS2)c(=O)c2cc([N+](=O)[O-])ccc12 | 35% (inactive)
N=C(N)c1ccc(S(N)(=O)=O)cc1 | 94.2% (inactive)
CC1(C)CC[C@]2(C(=O)NCCNCCN)CC[C@]3(C)C(=CC[C@@H]4[C@@]5(C)CCC(=O)C(C)(C)[C@@H]5CC[C@]43C)[C@@H]2C1 | 83.5% (inactive)
N#C/C(=C\c1ccc(-c2ccc(F)cc2)o1)c1nc(-c2ccco2)cs1 | 106% (inactive)
COc1cc(/C=N/Nc2ncnc3c2c(C)nn3-c2ccc(F)cc2)ccc1O | 90.4% (inactive)
COc1cc(C(=O)/C=C/c2cc(-c3ccc4c(c3)OCO4)n[nH]2)cc(OC)c1OC | -11.2% (active)
O=C(O)c1cccc2c1-c1ccc(Cl)cc1C2 | 113% (inactive)
O=c1c(CNc2ccc(S(=O)(=O)Nc3nccs3)cc2)coc2ccccc12 | 99.5% (inactive)
COc1cc(/C=N/NC(=S)NNC(=S)NC2CCCCC2)cc(OC)c1OC | 105% (inactive)
COc1cc2ncnc(Nc3ccc(OCc4cccc(F)c4)c(Cl)c3)c2cc1NC(=O)C1CCCC1 | 103% (inactive)
O=C1C=C(C(O)c2ccc(O)cc2)C(=O)c2ccccc21 (stereo not given) | 88.1% (inactive)
Cc1ccc(/C=C(\C#N)c2cc3ccccc3n2C)cc1 | 0.46% (active)
COc1cccc(-c2nn(-c3ccccc3)cc2-c2ccnc(NCCNS(=O)(=O)c3ccccc3)c2)c1 | 36.5% (inactive)
COc1ccc(-c2nc3c(c(C)nn3-c3ccc(F)cc3)c(=O)[nH]2)cc1 | 76.3% (inactive)
O=C1c2cccc3cccc(c23)C(=O)N1CC#Cc1ccc2c3c(cccc13)C(=O)N(CCO)C2=O | 86.4% (inactive)
CC(C)C[C@@H](NC(=O)[C@@H](Cc1ccccc1)NC(=O)c1cnccn1)B1O[C@H]2[C@H](O)[C@@H](C(=O)NCCCC[C@@H]3NC(=O)[C@@H](Cc4ccccc4)NC(=O)[C@H](CC(=O)O)NC(=O)CNC(=O)[C@H](CCCN=C(N)N)NC3=O)O[C@@H](CN)[C@H]2O1 | -66.1% (active)
